Test system: hepatocytes
assay: RNA-seq of hepatocytes treated with Phase III failure compounds
condition_info: gene BSCL2; hepatocytes
Where a name gives a salt, the structure may show the parent alone.
attribute_measured: BSCL2 expression, RNA-seq result
Respond numerically, and do not add a unit to the figure.

Asked: Given the compound O=C(N[C@H]1CN2CCC1CC2)c1cc2cccc(Cl)c2s1 [EVP-6124 (hydrochloride) (encenicline), encenicline] , what is its reported BSCL2 expression, RNA-seq result?
Given back: −0.54

Asked: Given the compound COc1cccc2c1C(=O)c1c(O)c3c(c(O)c1C2=O)C[C@@](O)(/C(CO)=N/NC(=O)CCCCCN1C(=O)C=CC1=O)C[C@@H]3O[C@H]1C[C@H](N)[C@H](O)[C@H](C)O1 [INNO-206 (aldoxorubicin), aldoxorubicin] , what is its reported BSCL2 expression, RNA-seq result?
Given back: 0.84

Asked: Given the compound C=CC(=O)Nc1cccc(Nc2nc(Nc3ccc(N4CCN(C(C)=O)CC4)cc3OC)ncc2C(F)(F)F)c1 [CO-1686 (Rociletinib), Rociletinib] , what is its reported BSCL2 expression, RNA-seq result?
Given back: −0.58

Asked: Given the compound COCCOc1ccc(N2CCN(CCn3ncc4c3nc(N)n3nc(-c5ccco5)nc43)CC2)cc1 [Preladenant] , what is its reported BSCL2 expression, RNA-seq result?
Given back: −0.26

These entries and their values trace back to patent US20210254056A1.
